B1: GLT8D2 (parent)
chain: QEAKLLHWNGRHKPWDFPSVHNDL

- Variants of: B1
- assay.explanation: protein stability index of a GFP-peptide fusion (GPS, HEK-293T) (PSI 1-6); higher = more stable;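 note: lentivirally expressed fusions sorted by FACS into six bins by GFP to DsRed ratio, PSI derived from sequencing read proportions per bin multiplied by bin number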
- measurement.setup: c terminus: a fixed tail appended
metric.name: protein stability index

Task: Consider the variant shown here: QEAKLLHWNGRHKPWDFESVHNDL [P18E] What is its recorded protein stability index?
Result: 2.98

Task: Repeat with QEASLLHWNGRHKPWDFPSVHNDL [K4S]
Result: 2.99

Task: Same again, this time with QEAKLLPWNGRHKPWDFPSVHNDL [H7P]
Result: 2.94

Task: Now the variant QEAKLLHWNGRHKPWDFKSVHNDL [P18K]
Result: 2.99

Task: Next entry: QEAKLLEWNGRHKPWDFPSVHNDL [H7E]
Result: 2.98

Task: Could you do the same for QEAKLLHWNGRHKPWDFPSSHNDL [V20S] , please?
Result: 3

Task: Now the same for QEAKRLHWNGRHKPWDFPSVHNDL [L5R]
Result: 2.92

Task: Also QEAKLLHWNGRHKPIDFPSVHNDL [W15I] , if possible.
Result: 3.02

Task: Now this one: QEAKLLHWNGRHKPWDFPSVHNDM [L24M]
Result: 2.98
